- Assay Procedure: Caco-2 apparent passive permeability
- Type: in vitro ADME
- Protocol Conditions: human, Caco-2, pH 7.4
Counter-ions that a name gives are not always drawn.
Quick rule for you: Papp under 10 ×10⁻⁶ cm/s gets Fulfilled, anything else gets Not fulfilled.

// below: answered compounds
{"Compound": "CC(C)(C)c1nc(-c2cccc(NS(=O)(=O)c3c(F)cccc3F)c2F)c(-c2ccnc(N)n2)s1 [Dabrafenib, Dabrafenib mesylate]", "Label Class": "Not fulfilled"}
{"Compound": "CS(=O)(=O)CCNCc1ccc(-c2ccc3ncnc(Nc4ccc(OCc5cccc(F)c5)c(Cl)c4)c3c2)o1 [Lapatinib, lapatinib ditosylate monohydrate]", "Label Class": "Fulfilled"}
{"Compound": "C#Cc1cccc(Nc2ncnc3cc(OCCOC)c(OCCOC)cc23)c1 [Erlotinib, erlotinib HCl]", "Label Class": "Not fulfilled"}
{"Compound": "CC(=O)Nc1cccc(-n2c(=O)n(C3CC3)c(=O)c3c(Nc4ccc(I)cc4F)n(C)c(=O)c(C)c32)c1 [Trametinib, trametinib *DMSO solvate]", "Label Class": "Not fulfilled"}
{"Compound": "C[C@@H](Oc1cc(-c2cnn(C3CCNCC3)c2)cnc1N)c1c(Cl)ccc(F)c1Cl", "Label Class": "Not fulfilled"}
{"Compound": "COc1cc2ncnc(Nc3ccc(F)c(Cl)c3)c2cc1OCCCN1CCOCC1", "Label Class": "Not fulfilled"}
{"Compound": "CCCS(=O)(=O)Nc1ccc(F)c(C(=O)c2c[nH]c3ncc(-c4ccc(Cl)cc4)cc23)c1F", "Label Class": "Fulfilled"}

Quick check: Papp of Cc1ccc(Nc2nccc(N(C)c3ccc4c(C)n(C)nc4c3)n2)cc1S(N)(=O)=O [Pazopanib, pazopanib hydrochloride (HCl)] under 10 ×10⁻⁶ cm/s?
Not fulfilled
